Form field: normalized growth (one value per entry).
- Test Description: chemical genetic growth profiling, strain panel (AID 1159580);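 also: tested at 20 µM; growth read once vehicle control cultures reached saturation at 30 °C; 1 = growth at the plate median or of vehicle wells; lower values mean less growth of the strain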
- Condition Info: S. cerevisiae deletion strains, growth OD, locus YEL037C, strain rad23, active compounds read low
The whole screen tested about 5,500 compounds, of which about 2,000 (36%) were called active. Inconclusive results (about 18%) are left out. Some of the results follow.
Number, no unit, nothing else.

Compound	normalized growth
CCOC(=O)C1=C[C@]2(CC)CCCN3CCc4c(n1c1ccccc41)[C@@H]32	1.01
O=C(O)c1cc(=O)c(O)c2c(O)c(O)c(O)cc2c1	0.552
O=C(O)c1cc(=O)c(O)c2c(O)c(O)ccc2c1	1
CC(Cc1ccc(O)c(O)c1)(NN)C(=O)O (configuration not stated)	1.02
CCOC(=O)C(C)(N)Cc1ccc(O)c(O)c1 (configuration not stated)	0.983
c1ccc(-c2ccc(C(c3ccccc3)n3ccnc3)cc2)cc1 (configuration not stated)	0.0622
c1ccc2[nH]c(-c3cscn3)nc2c1	0.991
COc1ccccc1OCC(O)CN1CCN(CC(=O)Nc2c(C)cccc2C)CC1 (configuration not stated)	1.01

Query string: Item under review: N[C@@H](CCC(=O)N[C@@H](CCSC(CC(=O)O)C(=O)O)C(=O)NCC(=O)O)C(=O)O (some centres not stated) . Reported normalized growth?
Result string: 0.994

Query string: Item under review: CC[C@]12CCCN3CCc4c(n(c5ccccc45)C(=O)C1)[C@@H]32 . Reported normalized growth?
Result string: 0.993

Query string: Item under review: O=C(O)c1cc(O)c(O)c(O)c1 . Reported normalized growth?
Result string: 1.02

Query string: Item under review: Nc1c(Br)cc(Br)cc1CNC1CCC(O)CC1 (configuration not stated) . Reported normalized growth?
Result string: 1.02

###

- Test Description: chemical genetic growth profiling, strain panel (AID 1159580)
- Condition Info: S. cerevisiae deletion strains, growth OD, locus YPL256C, strain CLN2
Out of some 5,500 compounds screened, about 2,000 (36%) were called active. Inconclusive results (about 18%) are left out. Rule as the data show it: active = normalized growth mostly below about 0.91 (no sharp cut-off); inconclusive = no clear call, values can overlap the other calls; inactive = mostly above about 0.92. This is one part of the list.
A correct response names exactly one class from Y (active), N (inactive)

Use the examples below as a reference point.
Molecule	Assigned Category
C=C[C@@]1(C)CC(=O)[C@@]2(O)[C@](C)(O1)[C@@H](O)[C@@H](O)C1C(C)(C)CC[C@H](O)[C@@]12C (stereo partly specified)	N
Cc1onc(-c2ccccc2Cl)c1-c1nc2ccccc2c(=O)o1	N
CC(Cc1ccc(O)c(O)c1)(NN)C(=O)O (stereo unspecified)	N
COc1ccccc1C(C[N+](=O)[O-])c1c(N)n(C)c(=O)n(C)c1=O (stereo unspecified)	Y

Query string: How was C[C@](N)(Cc1ccc(O)c(O)c1)C(=O)O classified in this test?
Result string: N

Query string: How was COS(C)(=O)=O classified in this test?
Result string: N

###

Form field: normalized growth (one value per entry).
- Test Description: chemical genetic growth profiling, strain panel (AID 1159580)
- Condition Info: S. cerevisiae deletion strains, growth OD, locus YML124C, strain tub3, active compounds read low
Out of some 5,500 compounds screened, about 2,000 (36%) were called active. Inconclusive results (about 18%) are left out. The list shows a part of the results.
Number, no unit, nothing else.

Worked set:
Compound	normalized growth
C/C=C/c1ccc(OC)cc1	1.01
O=C(O)CNCP(=O)(O)O	1.01
COc1cc(/C=C/C(=O)O)ccc1O	0.984
COc1ccc(/C=C/c2cc(O)cc(O)c2)cc1	0.972
CC(=O)N[C@@H]1[C@@H](C(O)[C@H](O)CO)O[C@](O)(C(=O)O)C[C@@H]1O (some centres not stated)	0.997

Query string: Item under review: COc1cc(O)cc(/C=C/c2ccccc2)c1 . Reported normalized growth?
Result string: 0.914

Query string: Item under review: O=c1ccn([C@@H]2O[C@H](COP(=O)(O)OP(=O)(O)OP(=O)(O)O)[C@@H](O)[C@H]2O)c(=O)[nH]1 . Reported normalized growth?
Result string: 0.995

Query string: Item under review: Oc1cc(O)cc(/C=C/c2ccccc2)c1 . Reported normalized growth?
Result string: 0.982

Query string: Item under review: COc1cc(/C=C/C(=O)O)cc(OC)c1OC . Reported normalized growth?
Result string: 1.02

Query string: Item under review: CCOP(=S)(OCC)Oc1ccc2c(C)c(Cl)c(=O)oc2c1 . Reported normalized growth?
Result string: 0.986

Query string: Item under review: COc1cc(C(=O)O)c(O)c2c1OCO2 . Reported normalized growth?
Result string: 0.998

Query string: Item under review: CCOC(N)=O . Reported normalized growth?
Result string: 0.995

###

- Test Description: chemical genetic growth profiling, strain panel (AID 1159580)
- Condition Info: S. cerevisiae deletion strains, growth OD, locus YGL227W, strain vid30, active compounds read low
In all, about 5,500 compounds went through this assay and about 2,000 (36%) were called active. Inconclusive results (about 18%) are left out. The list shows a part of the results.
Form field: normalized growth (one value per entry).
Number, no unit, nothing else.

Worked set:
Compound	normalized growth
CC[C@]1(O)CC2CN(CCc3c([nH]c4ccccc34)[C@@](C(=O)OC)(c3cc4c(cc3OC)N(C=O)[C@H]3[C@@](O)(C(=O)OC)[C@H](OC(C)=O)[C@]5(CC)C=CCN6CC[C@]43[C@@H]65)C2)C1 (stereo partly specified)	0.985
O=C1O[C@@H](CO)[C@H](O)[C@@H](O)[C@@H]1O	1.03

Query string: Item under review: CC12CCC(CC1)C(C)(C)O2 . Reported normalized growth?
Result string: 0.986

Query string: Item under review: CC12CCCC(O)(C1)C1CC(C)(C)C1CC2 (stereo unspecified) . Reported normalized growth?
Result string: 0.998

Query string: Item under review: CC[C@]12CCCN3CCc4c(n(c5ccccc45)C(=O)C1)[C@@H]32 . Reported normalized growth?
Result string: 1.01

Query string: Item under review: CC1(C)CC2C1CCC1(C)OC1CCC2(C)O (stereo unspecified) . Reported normalized growth?
Result string: 1.03

Query string: Item under review: CS(=O)(=O)OCCCCOS(C)(=O)=O . Reported normalized growth?
Result string: 1.02

###

- Test Description: chemical genetic growth profiling, strain panel (AID 1159580);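 also: tested at 20 µM; growth read once vehicle control cultures reached saturation at 30 °C; 1 = growth at the plate median or of vehicle wells; lower values mean less growth of the strain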
- Condition Info: S. cerevisiae deletion strains, growth OD, locus YMR205C, strain PFK2, active compounds read low
Screen size: about 5,500 compounds; about 2,000 (36%) were called active. About 18% were inconclusive and are not listed. The list shows a part of the results.
Doc: threshold 1 (exclusive). Items with normalized growth beneath it return label 1; others return label 0.

Use the examples below as a reference point.
Compound	Assigned Category
CC1=C(/C=C/C(C)=C/C=C/C(C)=C/C(=O)O)C(C)(C)CCC1	label 1
c1ccc(-c2ccc(C(c3ccccc3)n3ccnc3)cc2)cc1 (stereo not given)	label 1
CCOP(=S)(OCC)Oc1ccc2c(C)c(Cl)c(=O)oc2c1	label 1
CCCN(CCC)CCc1cccc2c1CC(=O)N2	label 1
COc1cc(C)c2c(c1C=O)Oc1c(c(C)c(O)c3c1C(O)OC3=O)OC2=O (stereo not given)	label 0

Query string: Input CC1=C(/C=C/C(C)=C/C=C/C(C)=C/CO)C(C)(C)CCC1 ; condition: normalized growth strictly below 1. Does it hold?
Result string: label 1

###

- Test Description: chemical genetic growth profiling, strain panel (AID 1159580);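 also: tested at 20 µM; growth read once vehicle control cultures reached saturation at 30 °C; 1 = growth at the plate median or of vehicle wells; lower values mean less growth of the strain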
- Condition Info: S. cerevisiae deletion strains, growth OD, locus YLR221C, strain rsa3
The campaign covered roughly 5,500 compounds. About 2,000 (36%) were called active. Inconclusive results (about 18%) are left out. Cut-off read from the data, not from the text of the source: active = normalized growth mostly below about 0.91 (no sharp cut-off); inconclusive = no clear call, values can overlap the other calls; inactive = mostly above about 0.92. This is one part of the list.
A correct response names exactly one class from active, inactive

Compound	Assigned Category
C=CC1=C(C)/C(=C/c2[nH]c(Cc3[nH]c(/C=C4\NC(=O)C(C)=C4C=C)c(C)c3CCC(=O)O)c(CCC(=O)O)c2C)NC1=O	inactive
CCOC(N)=O	inactive
COc1ccc(/C=C/C(=O)c2ccc(O)cc2O)cc1	active
CC1(C)O[C@@H]2[C@@H](CO[C@@]3(COS(N)(=O)=O)OC(C)(C)O[C@@H]23)O1	inactive

Now examine the next entry.
Query string: How was CCN(CC)CCOC(=O)C(Cc1cccc2ccccc12)CC1CCCO1 (stereo not given) classified in this test?
Result string: inactive

###

- Test Description: chemical genetic growth profiling, strain panel (AID 1159580);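 also: tested at 20 µM; growth read once vehicle control cultures reached saturation at 30 °C; 1 = growth at the plate median or of vehicle wells; lower values mean less growth of the strain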
- Condition Info: S. cerevisiae deletion strains, growth OD, locus YCL016C, strain dcc1, active compounds read low
The whole screen tested about 5,500 compounds, of which about 2,000 (36%) were called active. Inconclusive results (about 18%) are left out. The list shows a part of the results.
Form field: normalized growth (one value per entry).
Number, no unit, nothing else.

Worked set:
Compound	Test Result
CC1=C(/C=C/C(C)=C/C=C/C(C)=C/C=C/C=C(C)/C=C/C=C(C)/C=C/C2=C(C)CCCC2(C)C)C(C)(C)CCC1	1.01
COc1ccc(C[C@H](N)C(=O)N[C@@H]2[C@@H](CO)OC(n3cnc4c(N(C)C)ncnc43)[C@@H]2O)cc1 (stereo not given in full)	1.01
N[C@@H](CCC(=O)N[C@@H](CCSC(CC(=O)O)C(=O)O)C(=O)NCC(=O)O)C(=O)O (stereo not given in full)	0.988

Query string: Item under review: OC1CCCCC1N1CCC(c2ccccc2)CC1 (stereo not given) . Reported normalized growth?
Result string: 0.989

Query string: Item under review: O=c1cccc2n1C[C@H]1CNCC2C1 . Reported normalized growth?
Result string: 0.973
